Tested on: Adult neural stem cells
Experiment: Flow cytometry for early neuronal marker Doublecortin
Conditions: Table 6; 100 nM; vs EGF/FGF
Peptide text beside a SMILES is read from it.
observation type: Fold Induction (Doublecortin-positive cells) (fold)

molecule | test result
NC(=O)CC[C@@H]1NC(=O)[C@H](Cc2ccccc2)NC(=O)[C@H](Cc2ccc(O)cc2)NC(=O)CCSSC[C@@H](C(=O)N2CCC[C@H]2C(=O)N[C@H](CCCN=C(N)N)C(=O)NCC(N)=O)NC(=O)[C@H](CC(N)=O)NC1=O [DDAVP] | 1.8
CC1(C)SSC(C)(C)[C@@H](NC(=O)[C@@H](N)Cc2ccc(O)cc2)C(=O)NCC(=O)N[C@@H](Cc2ccccc2)C(=O)N[C@H]1C(=O)O [[D-Pen2-5]-Enkephalin] | 1.3
N=C(N)NCCC[C@H](N)C(=O)N1CCC[C@H]1C(=O)N1CCC[C@H]1C(=O)NCC(=O)N[C@@H](Cc1ccccc1)C(=O)N[C@@H](CO)C(=O)N1CCC[C@H]1C(=O)N[C@@H](Cc1ccccc1)C(=O)O [[Des-Arg9]-Bradykinin] | 1.8
CC[C@H](C)[C@H](NC(=O)[C@H](Cc1ccc(O)cc1)NC(=O)[C@@H](NC(=O)[C@H](CCCNC(=N)N)NC(=O)[C@@H](N)CC(=O)O)C(C)C)C(=O)N[C@@H](Cc1cnc[nH]1)C(=O)N1CCC[C@H]1C(=O)N[C@@H](Cc1ccccc1)C(=O)O [Angiotensin II (human synthetic)] | 1.2
CC(C)C[C@H](NC(=O)[C@H](Cc1ccccc1)NC(=O)CNC(=O)CNC(=O)[C@@H](N)Cc1ccc(O)cc1)C(=O)N[C@@H](CCCNC(=N)N)C(=O)N[C@@H](CCCCN)C(=O)N[C@@H](Cc1ccc(O)cc1)C(=O)N1CCC[C@H]1C(=O)N[C@@H](CCCCN)C(=O)O [α-Neo-Endorphin] (H-YGGFLRKYPK-OH; N-terminus and C-terminus assumed) | 1.6
